These entries and their values trace back to ChEMBL document CHEMBL5247575.

# Tested on: Klebsiella pneumoniae
# test-method-notes: Synergistic antibacterial activity against Klebsiella pneumoniae 729/1679 producing KPC-3 assessed as meropenem MIC at 4 ug/ml by broth microdilution method
# Type: functional
# conditions: dose 4 µg/ml
quantity-measured: MIC

Answered cases to consult:
{"molecule": "N#C[C@@H]1CC[C@@H]2CN1C(=O)N2OS(=O)(=O)[O-].[Na+]", "MIC": "≤ 0.12 µg/mL"}
{"molecule": "NC(=O)[C@@H]1CC[C@@H]2CN1C(=O)N2OS(=O)(=O)[O-].[Na+] [AVIBACTAM SODIUM]", "MIC": "≤ 0.12 µg/mL"}
{"molecule": "O.O=C(NC1CCNCC1)[C@@H]1CC[C@@H]2CN1C(=O)N2OS(=O)(=O)O", "MIC": "≤ 0.12 µg/mL"}
{"molecule": "O=C(NNC(=O)[C@@H]1CC[C@@H]2CN1C(=O)N2OS(=O)(=O)O)[C@@H]1CCNC1", "MIC": "0.25 µg/mL"}

Now look at this entry.
Data request: I'd like to know its MIC. The molecule in question is "O=C(NNC(=O)[C@@H]1CC[C@@H]2CN1C(=O)N2OS(=O)(=O)O)[C@@H]1CCCNC1"
Data returned: ≤ 0.12 µg/mL
